Quick reference for IC50 among some molecules
- TARGET_OR_SYSTEM: HDAC1 (Homo sapiens (Human))
- Sequence (Q13547 whole entry): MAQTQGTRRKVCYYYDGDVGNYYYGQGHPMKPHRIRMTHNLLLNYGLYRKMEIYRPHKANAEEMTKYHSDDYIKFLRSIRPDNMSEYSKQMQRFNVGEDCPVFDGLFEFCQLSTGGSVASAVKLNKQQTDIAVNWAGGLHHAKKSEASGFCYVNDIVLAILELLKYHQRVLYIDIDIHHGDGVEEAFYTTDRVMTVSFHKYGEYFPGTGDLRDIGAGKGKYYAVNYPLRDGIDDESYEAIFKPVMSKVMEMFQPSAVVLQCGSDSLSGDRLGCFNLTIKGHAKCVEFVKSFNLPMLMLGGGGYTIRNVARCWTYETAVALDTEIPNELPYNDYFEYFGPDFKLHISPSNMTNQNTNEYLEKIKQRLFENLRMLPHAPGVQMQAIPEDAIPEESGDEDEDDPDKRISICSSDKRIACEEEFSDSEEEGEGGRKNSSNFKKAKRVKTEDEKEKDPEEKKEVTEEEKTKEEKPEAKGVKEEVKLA
METRIC_NAME: IC50 (nM)

INSERT INTO assay_data (molecule, value) VALUES
  ('Cn1c(OCc2ccc(-c3noc(C(F)(F)F)n3)c(F)c2)nc2ncccc21', 720),
  ('CC(C)(C)OC(=O)[C@@H]1CCC(=O)N1c1ccc(-c2noc(C(F)(F)F)n2)c(F)c1', 4900),
  ('Cc1noc(C2CCCC(=O)N2c2ccc(-c3noc(C(F)(F)F)n3)cc2)n1 (racemic)', 2200),
  ('FC(F)(F)c1nc(-c2ccnc(OC3CCCc4ccc(Cl)nc43)c2)no1 (racemic)', 1100),
  ('CC(C)N1CCC(NCc2ccc(-c3noc(C(F)(F)F)n3)cn2)C1=O (racemic)', 4400),
  ('Fc1cc(COc2nc3cccnc3n2CC(F)(F)F)ccc1-c1noc(C(F)(F)F)n1', 780),
  ('FC(F)(F)c1nc(-c2ccc(CNc3cncnc3)cc2)no1', 2600),
  ('Cc1cc(C)nc(COc2nccc(-c3noc(C(F)(F)F)n3)c2Cl)n1', 8100);

----------
// endpoint IC50 / system HDAC1 (Homo sapiens (Human), UniProt Q13547)
METRIC_NAME: IC50 (µM)

INSERT INTO assay_data (compound, value_unit, value) VALUES
  ('CC(C)n1ccc(COc2cc(-c3noc(C(F)(F)F)n3)ccn2)n1', 'µM', 2.4),
  ('O=C(NCc1ccccn1)c1cccc(NCc2ccc(-c3noc(C(F)(F)F)n3)cn2)c1', 'µM', 0.49),
  ('O=S1(=O)CCC(S(=O)(=O)N(Cc2ccc(-c3noc(C(F)(F)F)n3)cc2)c2cccc(C(F)(F)F)c2)C1 (racemic)', 'µM', 1.2),
  ('Cc1cc(COc2cc(-c3noc(C(F)(F)F)n3)ccn2)nn1CC(F)F', 'µM', 1.2),
  ('Cc1noc([C@@H]2CCC(=O)N2c2ccc(-c3noc(C(F)(F)F)n3)cc2F)n1', 'µM', 1),
  ('FC(F)(F)c1nc(-c2ccc(COc3ccc4ncnn4c3)nc2)no1', 'µM', 2.4),
  ('O=C1NCCCCC1NCc1ccc(-c2noc(C(F)(F)F)n2)cn1 (racemic)', 'µM', 7.3),
  ('CC(C)(C)CC(=O)NC(Cc1ccc(-c2noc(C(F)(F)F)n2)cn1)c1cccc(C(F)(F)F)c1 (racemic)', 'µM', 1.1);

----------
Quick reference for pIC50 among some molecules
- TARGET_OR_SYSTEM: HDAC8 (Homo sapiens (Human), UniProt Q9BY41)
- Sequence (Q9BY41 whole entry): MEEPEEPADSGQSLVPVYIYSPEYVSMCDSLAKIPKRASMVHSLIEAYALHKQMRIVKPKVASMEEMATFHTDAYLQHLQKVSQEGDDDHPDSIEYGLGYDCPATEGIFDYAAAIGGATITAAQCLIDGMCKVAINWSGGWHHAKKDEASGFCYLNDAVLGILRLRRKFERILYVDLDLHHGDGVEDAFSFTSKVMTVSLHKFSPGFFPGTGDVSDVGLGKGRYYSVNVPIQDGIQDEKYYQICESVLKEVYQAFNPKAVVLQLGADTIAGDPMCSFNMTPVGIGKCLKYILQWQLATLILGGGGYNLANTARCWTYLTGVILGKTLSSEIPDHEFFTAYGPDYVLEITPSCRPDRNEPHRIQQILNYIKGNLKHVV
pIC50: −log10 of the molar value.
METRIC_NAME: pIC50

INSERT INTO results (molecule, metric_name, value) VALUES
  ('O=C(CCn1cncn1)N(Cc1ccc(-c2noc(C(F)(F)F)n2)cc1)c1cccc(C(F)(F)F)c1', 'pIC50', 5.70),
  ('O=C1N(CC2CCOCC2)CC(c2ccccc2)N1c1ccc(-c2noc(C(F)(F)F)n2)cc1 (racemic)', 'pIC50', 5.40),
  ('Fc1cc(COc2nncc3ccccc23)ccc1-c1noc(C(F)(F)F)n1', 'pIC50', 5.70),
  ('Cc1noc([C@@H]2COCC(=O)N2c2ccc(-c3noc(C(F)(F)F)n3)cc2)n1', 'pIC50', 5.52),
  ('CC(C)NC(=O)c1ccccc1NCc1ccc(-c2noc(C(F)(F)F)n2)cn1', 'pIC50', 5.85),
  ('O=C1CC[C@@H](c2nc(-c3cccnc3)no2)N1c1ccc(-c2noc(C(F)(F)F)n2)cc1', 'pIC50', 6.39),
  ('FC(F)(F)c1nc(-c2ccc(CNc3cccc4[nH]ncc34)cc2)no1', 'pIC50', 5.60),
  ('Cc1nc2cc(F)ccc2n1Cc1ccc(-c2noc(C(F)(F)F)n2)cc1F', 'pIC50', 5.09),
  ('Cc1ncc(CC(=O)N(Cc2ccc(-c3noc(C(F)(F)F)n3)cn2)c2cccc(F)c2)s1', 'pIC50', 5.62);

----------
- TARGET_OR_SYSTEM: HDAC5 (Homo sapiens (Human))
- Sequence (Q9UQL6 656-1122): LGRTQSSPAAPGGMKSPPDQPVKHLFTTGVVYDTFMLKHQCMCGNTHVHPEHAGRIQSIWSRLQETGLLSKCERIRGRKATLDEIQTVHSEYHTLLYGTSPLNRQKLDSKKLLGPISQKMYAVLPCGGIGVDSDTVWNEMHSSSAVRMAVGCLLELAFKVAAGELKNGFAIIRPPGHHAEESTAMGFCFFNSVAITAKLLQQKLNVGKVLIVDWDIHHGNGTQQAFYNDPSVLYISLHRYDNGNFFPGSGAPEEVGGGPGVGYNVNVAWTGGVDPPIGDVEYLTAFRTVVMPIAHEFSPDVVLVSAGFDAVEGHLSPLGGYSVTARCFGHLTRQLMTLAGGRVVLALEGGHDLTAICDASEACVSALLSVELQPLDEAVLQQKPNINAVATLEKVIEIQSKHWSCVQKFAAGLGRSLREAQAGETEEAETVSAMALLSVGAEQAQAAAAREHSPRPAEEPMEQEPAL
One threshold, 500 nM, splits the recorded IC50 values: lower ones are Met, equal or higher ones are Not met.

INSERT INTO assay_data (compound, discrete_label) VALUES
  ('Fc1cc(COc2nncc3ccccc23)ccc1-c1noc(C(F)(F)F)n1', 'Met'),
  ('CC1(C)C(=O)NCCN1C(=O)[C@@H]1CCC(=O)N1c1ccc(-c2noc(C(F)(F)F)n2)c(F)c1', 'Not met'),
  ('Cc1ccnnc1OCc1ccc(-c2noc(C(F)(F)F)n2)c(F)c1', 'Met'),
  ('Fc1cc(COc2cncnc2)ccc1-c1noc(C(F)(F)F)n1', 'Met'),
  ('O=S1(=O)CCC(S(=O)(=O)N(Cc2ccc(-c3noc(C(F)(F)F)n3)cc2)c2cccc(C(F)(F)F)c2)C1 (racemic)', 'Met'),
  ('Cc1ccncc1COc1ccc(-c2noc(C(F)(F)F)n2)cn1', 'Not met');

----------
- TARGET_OR_SYSTEM: HDAC5 (Homo sapiens (Human))
Quick reference for IC50 among some molecules
METRIC_NAME: IC50 (nM)

INSERT INTO results (molecule, value) VALUES
  ('COC(=O)NC(Cc1ccc(-c2noc(C(F)(F)F)n2)cn1)c1cccc(C(F)(F)F)c1 (stereo not shown) [Example 180]', 650),
  ('O=C(C1CCS(=O)(=O)CC1)N(Cc1ccc(-c2noc(C(F)(F)F)n2)c(F)c1)c1cccc(C(F)(F)F)c1 [Example 489]', 760),
  ('Cn1cnc2cc(COc3nccc(-c4noc(C(F)(F)F)n4)c3Cl)ccc21 [Example 255]', 380),
  ('Fc1cc(COc2cccc(Cl)n2)ccc1-c1noc(C(F)(F)F)n1 [Example 286]', 50),
  ('CC(C)C(=O)NC(Cc1ccc(-c2noc(C(F)(F)F)n2)cn1)c1cccc(C(F)(F)F)c1 (racemic) [Example 478]', 500),
  ('O=C1NCCCC1NCc1ccc(-c2noc(C(F)(F)F)n2)cn1 (racemic) [Example 458]', 290),
  ('CNC(=O)OCc1ccc(-c2noc(C(F)(F)F)n2)cn1 [Example 194]', 610),
  ('CC(Oc1nccc(-c2noc(C(F)(F)F)n2)c1Cl)c1cccnc1 (racemic) [Example 256]', 200),
  ('O=C(Cn1cncn1)N(Cc1ccc(-c2noc(C(F)(F)F)n2)cc1)c1cccc(C(F)(F)F)c1 [Example 68]', 500),
  ('O=C1COC[C@@H](c2ccccc2)N1c1ccc(-c2noc(C(F)(F)F)n2)c(F)c1 [Example 2]', 18);

----------
// endpoint pIC50 / system HDAC1 (Homo sapiens (Human))
pIC50: −log10 of the molar value.
METRIC_NAME: pIC50

INSERT INTO measurements (compound, metric_name, value) VALUES
  ('Cc1cncnc1OCc1ccc(-c2noc(C(F)(F)F)n2)c(F)c1', 'pIC50', 5.48),
  ('FC(F)(F)c1nc(-c2ccc(CNC3CCc4ncccc4C3)nc2)no1 (racemic)', 'pIC50', 6.35),
  ('O=C1COC[C@@H](c2ccccc2)N1c1ccc(-c2noc(C(F)(F)F)n2)cn1', 'pIC50', 5.85),
  ('O=C(COc1cc(-c2noc(C(F)(F)F)n2)ccn1)N1CCOCC1', 'pIC50', 5.66),
  ('NCc1ccccc1OCc1ccc(-c2noc(C(F)(F)F)n2)c(F)c1', 'pIC50', 5.64),
  ('O=C(CN1CCOCC1)NC(Cc1ccc(-c2noc(C(F)(F)F)n2)cn1)c1cccc(C(F)(F)F)c1 (racemic)', 'pIC50', 5.96),
  ('Cn1cccc(OCc2ccc(-c3noc(C(F)(F)F)n3)c(F)c2)c1=O', 'pIC50', 5.80),
  ('FC(F)(F)c1nc(-c2cnc(COc3ccc4ccccc4n3)nc2)no1', 'pIC50', 6.80),
  ('Fc1cccnc1COc1nccc(-c2noc(C(F)(F)F)n2)c1Cl', 'pIC50', 5.03),
  ('NC(=O)c1ccccc1NCc1ccc(-c2noc(C(F)(F)F)n2)cn1', 'pIC50', 6.52);

----------
pIC50: −log10 of the molar value.
// endpoint pIC50 / system HDAC1 (Homo sapiens (Human))
METRIC_NAME: pIC50

INSERT INTO measurements (compound, metric_name, value) VALUES
  ('O=C(CN1CCS(=O)(=O)CC1)N(Cc1ccc(-c2noc(C(F)(F)F)n2)cc1)c1cccc(C(F)(F)F)c1 [Example 81]', 'pIC50', 5.89),
  ('C[Si]1(C)CCC(NCc2ccc(-c3noc(C(F)(F)F)n3)cn2)CC1 [Example 436]', 'pIC50', 5.92),
  ('CC(C)(C)OC(=O)N(Cc1ccc(-c2noc(C(F)(F)F)n2)cn1)c1cccc(F)c1 [Example 91]', 'pIC50', 5.89);
